# Protocol notes: chemical genetic growth profiling, strain panel (AID 1159580);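 also: tested at 20 µM; growth read once vehicle control cultures reached saturation at 30 °C; lower values mean less growth of the strain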
# Stated conditions: S. cerevisiae deletion strains, growth OD, locus YDR101C, strain arx1
Out of some 5,500 compounds screened, about 2,000 (36%) were called active. Inconclusive results (about 18%) are left out. Rule as the data show it: active = normalized growth mostly below about 0.91 (no sharp cut-off); inconclusive = no clear call, values can overlap the other calls; inactive = mostly above about 0.92. This is one part of the list.
Write down one outcome, taken from active, inactive

Dear colleague, could you share the recorded outcome for C=C1C([C@]2(C)C(CC(=O)OC)[C@@](C)(COC(C)=O)OC(=O)C[C@@H]2OC(C)=O)[C@@H](OC=O)[C@H](OC(=O)C(OC(C)=O)C(C)CC)[C@@]2(C)[C@H](c3ccoc3)CC(=O)C12O (stereo not given in full) when you have a moment?
inactive

Fill in: this test's call for CC(Oc1ccccc1)C(=O)N[C@@H]1C(=O)N2[C@@H]1SC(C)(C)[C@@H]2C(=O)O (stereo not given in full) is ___
inactive

Per the records of this test, what outcome belongs to CC(NCCc1ccc(O)cc1)C(O)c1ccc(O)cc1 (stereo not given) ?
inactive

Status in this test for COc1ccc2c3c1O[C@H]1C[C@@H](O)C=C[C@@]31CCN(C)C2 ?
inactive

Which outcome was assigned to Cc1c(O)c(C(=O)CC(C)C)c2oc3c(C(=O)CC(C)C)c(O)c(C)c(O)c3c2c1O in this test?
inactive

Short answer needed: outcome of this test for COc1cc2c(cc1OC)[C@@H]1C(=O)c3ccc(O)c(CC=C(C)C)c3O[C@@H]1CO2 ?
inactive

# fetch the recorded call for CCOC(=O)CCC(=O)O[C@H]1[C@H](O[C@@H]2[C@@H](C)[C@H](O[C@H]3C[C@@](C)(OC)[C@@H](O)[C@H](C)O3)[C@@H](C)C(=O)O[C@H](CC)[C@@](C)(O)[C@H](O)[C@@H](C)C(=O)[C@H](C)C[C@@]2(C)O)O[C@H](C)C[C@@H]1N(C)C here
inactive

State the result this test recorded for CCC(C)C(OC(C)=O)C(=O)OC1C(O)C2C3(C)C=CC(=O)C(C)(C)C3CC(OC(=O)C(O)C(C)C)C2(C)C23OC2CC(c2ccoc2)C13C (stereo not given) .
inactive

Which result was noted for this compound in the test: COc1cc2c(cc1OC)C1C(=O)c3ccc4c(c3OC1CO2)CCC(C)(C)O4 (stereo not given)
inactive

Could you please tell me the result logged for CCCCCCCCNC(C)C(O)c1ccc(SC(C)C)cc1 (stereo not given) in this assay?
active

Field: outcome | Entry: CC(=O)c1c(O)c(C)c(O)c2c1oc1c(C(C)=O)c(O)c(C)c(O)c12
active

Identify the outcome logged in this assay for the compound shown: C=C1C([C@]2(C)C(CC(=O)OC)[C@@](C)(COC(C)=O)OC(=O)C[C@@H]2OC(C)=O)[C@@H](OC=O)[C@H](OC(=O)C(O)C(C)CC)[C@@]2(C)[C@H](c3ccoc3)CC(=O)C12O (stereo not given in full)
inactive

Record request — test call for CC[C@H]1OC(=O)[C@H](C)[C@@H](O[C@H]2C[C@@](C)(OC)[C@@H](O)[C@H](C)O2)[C@H](C)[C@@H](O[C@@H]2O[C@H](C)C[C@H](N(C)C)[C@H]2O)[C@](C)(O)C[C@@H](C)CN(C)[C@H](C)[C@@H](O)[C@]1(C)O
inactive

What was the test verdict on COc1cc2c(cc1OC)[C@@H]1C(=O)c3ccc4c(c3O[C@@H]1CO2)C=CC(C)(C)O4 ?
inactive

# lookup: test call for CN[C@@H](C)[C@@H](O)c1ccccc1
inactive

These data points were gathered from PubChem BioAssay AID1159580.
